- System Tested: cp1285
- Assay Protocol: BLI
Observation Type: Kd (nM)
Please give a number only; it is taken to be in nM.

// Kd lookup, key: cp203 (Fc fusion, biotinylated for BLI capture (site not stated)) NRMRCYNCGGSPSSSCKEAVTTCGEGRPQPGLEQIKLPGNPPVTLIHQHPACVAAHHCNQVETESVGDVTYPAHRDCYLGDLCNS
1.78
